# Tested on: morningglory (Ipomoea spp.)
# EXPERIMENTAL_PROTOCOL: Test A pre-/postemergence plant response
# Type: in vivo
# CONDITION_DESCRIPTION: Postemergence, 125 g ai/ha; visual injury, 0 to 100 scale (0 no effect, 100 complete control), approx. ten days
MEASURED_ENDPOINT: Morningglory plant response rating
I'd appreciate a reply containing only the number, no unit.

COMPOUND: O=C1CCCC(O)=C1C(=O)c1cnc(-c2ccccc2)n(-c2ccc(F)cc2F)c1=O [Compound 57]
NUMERIC_RESULT: 50

Form: compound = CCCCc1ncc(C(=O)C2=C(O)CCCC2=O)c(=O)n1-c1cccc(C)c1 [Compound 63] ; Morningglory plant response rating = 100

According to the records, this compound Cc1cccc(Cl)c1-n1c(-c2ccccc2)ncc(C(=O)C2=C(O)CCCC2=O)c1=O [Compound 46] displays Morningglory plant response rating of 60

The compound identified as O=C1CCCC(O)=C1C(=O)c1cnc(-c2ccsc2)n(-c2ccccc2)c1=O [Compound 56] registered its Morningglory plant response rating at 90

Notebook: CCn1ncc(C(=O)c2cnc(-c3ccccc3)n(-c3ccccc3)c2=O)c1OS(=O)(=O)c1ccc(C)cc1 [Compound 16] , Morningglory plant response rating read as 10

get_value(item= CCCCc1ncc(C(=O)C2=C(O)CCCC2=O)c(=O)n1-c1ccccc1 [Compound 42] , readout=Morningglory plant response rating) returns 80

Input Cc1ccc(-n2c(-c3ccccc3)ncc(C(=O)C3=C(O)CCCC3=O)c2=O)c(C)c1 [Compound 28] . Output Morningglory plant response rating: 0
